Test system: SNB-19 CNS
Assay: NCI-60 one-dose screen, 48 h (100 = growth as untreated, 0 = no growth, -100 = all killed)
Conditions: 10 µM unless noted
About 83,000 compounds went through this panel and 20% of them were active in at least one assay; those are over-represented in the sample as a whole.
Measured Attribute: growth (%)
The reply should contain only the number, in %.

Here NC(=O)CC(NC(=O)COc1ccc(Cl)cc1Cl)C(=O)O (configuration not stated) was tested on SNB-19 CNS, and its growth came to 103

Reported SNB-19 CNS growth for item CCOP1(=O)CC(C)=C(Cl)C(P(=O)(O)O)C1 (configuration not stated) was 106

Reading of growth for Cc1ccc(NC(=O)CCl)cc1Cl with SNB-19 CNS: 94.5

Record CCOC(=O)c1ccc2n1CCCc1cnc(NC(C)=O)nc1-2 / SNB-19 CNS, growth recorded as 99.7

Record CCC(C)(C)c1ccc(OCCCCCCN2CCN(c3ccc(C)c(Cl)c3)CC2)cc1 / SNB-19 CNS, growth recorded as 103

Sample CC(C)(C)OC(=O)N1C/C(=C\c2ccccc2)C(=O)/C(=C/c2ccccc2)C1 , system: SNB-19 CNS. Its growth is 91.2

Record CC(=O)Nc1ccc(CC#N)cc1Br has SNB-19 CNS growth equal to 103

The reported SNB-19 CNS growth of CCOC(=O)c1cc(C(=O)c2ccc(Br)cc2)n2cc(C)cc(C)c12 is 87

Record C=C(C)C(C(=O)OCC)(C(=O)OCC)C(C)C ; system SNB-19 CNS; growth = 99.9

// assay SNB-19 CNS, entry O=C(/C=C\c1ccc(NCc2ccc(C(=O)O)cc2)cc1)CCl , growth value = 96.7

SNB-19 CNS data for CC([C@H]1CC=C2C3CCC4=C[C@@H](N(C)C)CC[C@]4(C)C3CC[C@@]21C)N(C)C (some centres not stated) ; its growth: 79.7

Note to self: growth of CC(=O)NNC(=O)c1sc(NC(C)=O)nc1C with SNB-19 CNS was 92.4

Case c1ccc(-c2cn3ccnc3c(-c3ccc4ncn(C5CCCCC5)c4c3)n2)cc1 , SNB-19 CNS, growth recorded as 77.1

Tested on SNB-19 CNS, the item CCOc1ccc(/C=N/NC(=O)c2cccc3ccccc23)cc1OCC showed growth equal to 110

Measured on SNB-19 CNS, Nc1ccc(S(=O)(=O)Nc2cc(F)cc(F)c2)cc1 has a documented growth of 104

# growth measured on SNB-19 CNS for item CC(=O)c1cc(Nc2cc(C)nc(N)n2)cc(C(C)=O)c1 = 102

Record Nc1nc2c(c3cnccc13)C(c1ccc(Cl)c(Cl)c1)Cc1cnccc1-2 (configuration not stated) / SNB-19 CNS, growth recorded as 13.7

The compound O=C(Nc1ccccc1)Nc1ccc(Nc2ncnc3sc4c(c23)CCCC4)cc1 , tested on SNB-19 CNS, showed growth of 95.9

Assay SNB-19 CNS, sample COC(=O)[C@@H]1[C@H](O)[C@H](C)[C@H](O)[C@H](C)/C=C\C=C(C)C(=O)Nc2c(C)c(OC(C)=O)c3c(c2O)C(=O)C(C)=C2OCOC(=C23)C(C)=C[C@@](C)(O)[C@H](O)[C@@H](C)[C@H]1OC(C)=O , growth read: 113

Record for COc1ccc(OC)c(Cn2cc3c(c2)-c2oncc2CC3)c1 under target or system SNB-19 CNS: growth reported as 50.6

Entry CC(C)CCCCCOC(=O)c1ccccc1SSc1ccccc1C(=O)OCCCCCC(C)C under SNB-19 CNS had growth of 103

// compound C=CCC(CCC(CC=C)C(=O)OCC)C(=O)OCC (configuration not stated) , assay SNB-19 CNS, growth value: 96.2
